Molecular target: Adrenergic receptor alpha-1 (Homo sapiens, UniProt P35348+P25100+P35368)
Sequence (P35348 whole entry): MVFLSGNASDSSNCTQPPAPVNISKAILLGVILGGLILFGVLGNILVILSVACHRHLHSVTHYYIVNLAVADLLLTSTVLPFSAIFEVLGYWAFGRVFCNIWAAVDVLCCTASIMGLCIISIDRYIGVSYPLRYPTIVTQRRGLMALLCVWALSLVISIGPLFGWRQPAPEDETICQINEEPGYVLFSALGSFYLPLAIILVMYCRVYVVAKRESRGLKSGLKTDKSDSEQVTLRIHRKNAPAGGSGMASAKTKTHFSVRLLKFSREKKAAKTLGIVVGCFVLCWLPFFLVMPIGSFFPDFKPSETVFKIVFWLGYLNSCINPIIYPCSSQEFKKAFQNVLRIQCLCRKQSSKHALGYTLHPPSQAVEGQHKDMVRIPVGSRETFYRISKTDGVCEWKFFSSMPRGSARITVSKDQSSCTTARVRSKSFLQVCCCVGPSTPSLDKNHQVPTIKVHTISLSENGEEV
Sequence (P25100 whole entry): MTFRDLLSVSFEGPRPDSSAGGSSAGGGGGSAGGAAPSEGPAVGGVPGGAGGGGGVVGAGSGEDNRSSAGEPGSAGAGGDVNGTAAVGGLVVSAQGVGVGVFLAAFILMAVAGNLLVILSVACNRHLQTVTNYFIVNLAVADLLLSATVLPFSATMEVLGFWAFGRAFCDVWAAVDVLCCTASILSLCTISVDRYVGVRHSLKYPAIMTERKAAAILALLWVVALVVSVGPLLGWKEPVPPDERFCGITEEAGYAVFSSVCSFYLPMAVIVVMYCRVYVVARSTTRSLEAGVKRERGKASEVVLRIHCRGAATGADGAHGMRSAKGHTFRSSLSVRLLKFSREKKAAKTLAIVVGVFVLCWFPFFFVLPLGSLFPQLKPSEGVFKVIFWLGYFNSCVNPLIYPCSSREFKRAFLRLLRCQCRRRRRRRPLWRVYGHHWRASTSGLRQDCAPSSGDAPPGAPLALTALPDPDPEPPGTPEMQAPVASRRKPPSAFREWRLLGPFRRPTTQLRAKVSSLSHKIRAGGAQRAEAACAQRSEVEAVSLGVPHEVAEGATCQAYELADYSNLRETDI
Sequence (P35368 whole entry): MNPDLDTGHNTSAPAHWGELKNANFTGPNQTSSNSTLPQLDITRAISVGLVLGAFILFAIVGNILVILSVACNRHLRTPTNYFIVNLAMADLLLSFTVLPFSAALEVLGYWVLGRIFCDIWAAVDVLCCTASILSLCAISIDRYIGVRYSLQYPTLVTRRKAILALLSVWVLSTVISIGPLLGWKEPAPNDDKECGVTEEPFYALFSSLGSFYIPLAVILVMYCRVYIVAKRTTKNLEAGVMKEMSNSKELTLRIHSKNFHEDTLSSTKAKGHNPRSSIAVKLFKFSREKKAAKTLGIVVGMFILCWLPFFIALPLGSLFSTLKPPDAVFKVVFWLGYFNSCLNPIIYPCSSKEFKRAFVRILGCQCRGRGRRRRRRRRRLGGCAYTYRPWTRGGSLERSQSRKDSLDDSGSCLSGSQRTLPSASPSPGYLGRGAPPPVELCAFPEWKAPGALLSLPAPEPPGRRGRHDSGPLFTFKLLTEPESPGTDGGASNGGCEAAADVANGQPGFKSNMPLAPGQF
Assay: In vitro blocking activity against alpha adrenergic receptor, isolated from rabbit aortic strip
Format: protein assay, Oryctolagus cuniculus
readoutType: pA2

>>> obsvalue("COC(=O)c1cc(C(O)CNC(C)CCc2ccc3c(c2)OCO3)ccc1OC.Cl (stereo not drawn)")
5.56
>>> obsvalue("CCOc1ccc(C(O)CN2CCN(c3ccccc3)CC2)cc1C(N)=O.Cl (stereo not drawn)")
6.27
>>> obsvalue("Cl.NC(=O)c1cc(C(O)CN2CCN(c3ccccn3)CC2)ccc1O (stereo not drawn)")
6.08
>>> obsvalue("COc1ccccc1N1CCN(CC(O)c2ccc(O)c(C(N)=O)c2)CC1.Cl (stereo not drawn)")
7.42
>>> obsvalue("CC(CCc1ccc2c(c1)OCO2)NCC(O)c1ccc(O)c(C(=O)N(C)C)c1.Cl (stereo not drawn)")
5.46
